# Species on record: Bos taurus
# Test Name: Displacement of ethidium from calf thymus DNA by fluorimetric method
Each entry below carries its recorded C50.
Give the value in µM but do not write µM after it.

Worked cases, answers included:
| Entry Smiles | C50 (µM) |
| --- | --- |
| C[n+]1ccc(Nc2ccc(/C=C/c3ccc(Nc4cc[n+](C)c5ccc(N)cc45)cc3)cc2)cc1.[Br-].[Br-] | 0.38 |
| C/C(=N\NC(=N)N)c1ccc(C(=O)Nc2ccc(Nc3cc[n+](C)c4ccc(N)cc34)cc2)cc1.Cc1ccc(S(=O)(=O)O)cc1.Cc1ccc(S(=O)(=O)[O-])cc1 | 0.4 |
| CCC[n+]1ccc(Nc2ccc(NC(=O)c3ccc(Nc4cc[n+](CCC)c5ccccc45)cc3)cc2)cc1.[Br-].[Br-] | 2.3 |

Please look at the following molecule next.
According to the records, this molecule C[n+]1cccc(NC(=O)c2ccc(NC(=O)c3ccc(C(=O)Nc4ccc(Nc5cc[n+](C)c6ccc(N)cc56)cc4)cc3)cc2)c1.Cc1ccc(S(=O)(=O)[O-])cc1.Cc1ccc(S(=O)(=O)[O-])cc1 displays C50 of 0.31
